List of Sirt6 Activity (% activity, 10 μM) values.
target: Sirt6 (Homo sapiens, UniProt Q8N6T7); construct: purchased CycLex CY-1156V2; assay: Measurement of Sirt6 Activity (CycLex Sirt6 Deacetylase Fluorometric Assay Kit); format: biochemical; conditions: compound at 10 μM; fluorescence relative to the group without compound treatment (positive control group)
Sequence (Q8N6T7 whole entry): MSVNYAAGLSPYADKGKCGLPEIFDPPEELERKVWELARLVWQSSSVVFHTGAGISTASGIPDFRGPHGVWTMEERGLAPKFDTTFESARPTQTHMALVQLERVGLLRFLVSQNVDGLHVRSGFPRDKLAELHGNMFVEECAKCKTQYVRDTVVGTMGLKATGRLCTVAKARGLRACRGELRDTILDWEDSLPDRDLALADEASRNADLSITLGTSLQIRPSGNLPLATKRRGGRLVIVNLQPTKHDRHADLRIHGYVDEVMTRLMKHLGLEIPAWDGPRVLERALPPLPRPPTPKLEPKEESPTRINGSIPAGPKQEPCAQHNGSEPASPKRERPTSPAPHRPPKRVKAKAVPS
Note: unit % activity is implicit; provide only the numeric part.

# smilesStructure, measuredTarget, resultUnit, Sirt6 Activity (% activity, 10 μM)
rows = [
    ("CCS(=O)(=O)Nc1cccc(-c2nn(C3COC3)c(=O)c3ccccc23)c1", "Sirt6 (Homo sapiens, UniProt Q8N6T7)", "% activity", 101.27),
]

Entry "CCCS(=O)(=O)Nc1cccc(-c2nn(-c3ccc(F)cc3)c(=O)c3ccccc23)c1" , Sirt6 Activity (% activity, 10 μM) reported as 160

Recorded Sirt6 Activity (% activity, 10 μM) (compound "Cl.N[C@@H]1CCCCN(c2nn(-c3ccc(Cl)cc3)c(=O)c3ccccc23)C1" ): 273.80

// field: Sirt6 Activity (% activity, 10 μM); key: "CNS(=O)(=O)c1cccc(-c2nn(-c3c(F)cccc3F)c(=O)c3ccccc23)c1" ; value = 233

The recorded Sirt6 Activity (% activity, 10 μM) for entry "O=c1c2ccccc2c(-c2ccc[n+]([O-])c2)nn1-c1ccc(F)cc1F" equals 318

// field: Sirt6 Activity (% activity, 10 μM); key: "O=c1c2ccccc2c(-c2cccc(NS(=O)(=O)C(F)(F)F)c2)nn1-c1ccc(F)cc1" ; value = 194

The recorded Sirt6 Activity (% activity, 10 μM) for entry "CN(C)S(=O)(=O)Nc1cc(-c2nn(-c3ccccc3)c(=O)c3ccccc23)ccc1Cl" equals 120

compound "CCS(=O)(=O)c1cccc(-c2nn(-c3ccc(F)cc3F)c(=O)c3ccccc23)c1" , Sirt6 Activity (% activity, 10 μM) observed: 283

----------
molecular target: Sirt6 (Homo sapiens); construct: purchased CycLex CY-1156V2; assay: Measurement of Sirt6 Activity (CycLex Sirt6 Deacetylase Fluorometric Assay Kit); type: biochemical; conditions: compound at 10 μM; fluorescence relative to the group without compound treatment (positive control group)
measuredQuantity: Sirt6 Activity (% activity, 10 μM) (% activity)
Record the value in % activity, omitting the unit from your answer.

Past entries and their recorded results:
# compound, measuredQuantity, quantitativeResult
records = [
    ("CCS(=O)(=O)NC1CCN(c2nn(-c3ccc(F)cc3)c(=O)c3ccccc23)C1 (centres unmarked) [Example 137]", "Sirt6 Activity (% activity, 10 μM)", 112.58),
    ("CS(=O)(=O)c1cccc(-c2nn(-c3ccc(F)cc3F)c(=O)c3ccc(F)cc23)c1 [Example 119]", "Sirt6 Activity (% activity, 10 μM)", 166),
    ("CN(C)S(=O)(=O)c1cccc(-c2nn(-c3c(F)cccc3F)c(=O)c3ccccc23)c1 [Example 109]", "Sirt6 Activity (% activity, 10 μM)", 188),
    ("CC(C)(C(N)=O)c1cccc(-c2nn(-c3ccc(Cl)cc3)c(=O)c3ccccc23)c1 [Example 197]", "Sirt6 Activity (% activity, 10 μM)", 153.60),
    ("CC(C)(CN)c1cccc(-c2nn(-c3ccc(F)cc3F)c(=O)c3ccccc23)c1.Cl [Example 204]", "Sirt6 Activity (% activity, 10 μM)", 161.50),
    ("CNS(=O)(=O)c1cccc(-c2nn(-c3ccccc3)c(=O)c3cc(F)ccc23)c1 [Example 113]", "Sirt6 Activity (% activity, 10 μM)", 116),
    ("CC(C)/[N+]([O-])=C/c1cccc(-c2nn(-c3cccc(F)c3)c(=O)c3ccccc23)c1 [Example 28]", "Sirt6 Activity (% activity, 10 μM)", 154),
    ("CCS(=O)(=O)Nc1cccc(-c2nn(-c3cnn(C)c3)c(=O)c3ccccc23)c1 [Example 133]", "Sirt6 Activity (% activity, 10 μM)", 118.8),
    ("CC(C)NC(=O)C(C)(C)c1cccc(-c2nn(-c3ccc(F)cc3F)c(=O)c3ccccc23)c1 [Example 176]", "Sirt6 Activity (% activity, 10 μM)", 244.30),
    ("CCS(=O)(=O)Nc1cccc(-c2nn(C3CCC(F)(F)CC3)c(=O)c3ccccc23)c1 [Example 140]", "Sirt6 Activity (% activity, 10 μM)", 134.41),
]

For this compound ( CNC(=O)C(C)(C)c1cccc(-c2nn(-c3ccc(F)cc3)c(=O)c3ccccc23)c1 [Example 153] ), measured Sirt6 Activity (% activity, 10 μM) is 280.4

Recorded Sirt6 Activity (% activity, 10 μM) (compound COC(=O)NS(=O)(=O)Nc1cccc(-c2nn(-c3ccc(F)cc3)c(=O)c3ccccc23)c1 [Example 20] ): 211

----------
molecular target: Sirt6 (Homo sapiens); construct: purchased CycLex CY-1156V2; test: Measurement of Sirt6 Activity (CycLex Sirt6 Deacetylase Fluorometric Assay Kit); assay type: biochemical; settings: compound at 10 μM; fluorescence relative to the group without compound treatment (positive control group)
For each record, check the reported Sirt6 Activity (% activity, 10 μM): if it is below 200 % activity write True, else write False.

# smilesStructure, measuredTarget, answerLabel
measured = [
    ("C/[N+]([O-])=C/c1cccc(-c2nn(-c3ccc(F)cc3F)c(=O)c3ccccc23)c1", "Sirt6 (Homo sapiens)", "True"),
    ("O=c1c2ccccc2c(-c2cccc(NS(=O)(=O)C3CC3)c2)nn1-c1ccc(F)cc1", "Sirt6 (Homo sapiens)", "True"),
    ("CS(=O)(=O)c1cccc(-c2nn(-c3ccccc3)c(=O)c3cc(F)ccc23)c1", "Sirt6 (Homo sapiens)", "True"),
    ("CC(C)(C(=O)NCCO)c1cccc(-c2nn(-c3ccc(F)cc3F)c(=O)c3ccccc23)c1", "Sirt6 (Homo sapiens)", "False"),
]

Dear reviewer, please state whether "O=c1c2ccccc2c(-c2cccnc2)nn1-c1ccc(F)cc1F" has Sirt6 Activity (% activity, 10 μM) strictly beneath 200 % activity.
False

Confirm or reject: Sirt6 Activity (% activity, 10 μM) of "CCS(=O)(=O)Nc1cccc(-c2nn(Cc3ccccc3)c(=O)c3ccccc23)c1" lies strictly below 200 % activity
True

Quick check: does "O=c1c2ccccc2c(N2CCCNCC2)nn1-c1ccc(F)cc1F" have Sirt6 Activity (% activity, 10 μM) under 200 % activity?
True

Given "CC(C)(C)/[N+]([O-])=C/c1ccc(F)c(-c2nn(-c3ccc(F)cc3)c(=O)c3ccccc23)c1" , is recorded Sirt6 Activity (% activity, 10 μM) strictly lower than 200 % activity?
True

----------
The entries below come with measured Sirt6 Activity (% activity, 10 μM) values attached.
target: Sirt6 (Homo sapiens); construct: purchased CycLex CY-1156V2; test: Measurement of Sirt6 Activity (CycLex Sirt6 Deacetylase Fluorometric Assay Kit); assay type: biochemical; conditions: compound at 10 μM; fluorescence relative to the group without compound treatment (positive control group); 10 µM
State the value with its unit after it.

# molecule, measuredTarget, Sirt6 Activity (% activity, 10 μM)
measured = [
    ("CC(C)/[N+]([O-])=C/c1cccc(-c2nn(-c3ccc(F)cc3)c(=O)c3ccccc23)c1 [Example 17]", "Sirt6 (Homo sapiens)", "207 % activity"),
    ("O=C(O)C1(C2CCCN(c3nn(-c4ccc(F)cc4F)c(=O)c4ccccc34)C2)CC1 (stereo not shown) [Example 212]", "Sirt6 (Homo sapiens)", "170.10 % activity"),
    ("O=C(O)C1(C2CCCN(c3nn(-c4ccc(F)cc4F)c(=O)c4ccccc34)C2)CC1 (stereo not shown) [Example 213-1]", "Sirt6 (Homo sapiens)", "168.10 % activity"),
]

Here is the next item to consider.
Sirt6 Activity (% activity, 10 μM) reading for CC(C)/[N+]([O-])=C/c1cccc(-c2nn(-c3ccc(F)cc3)c(=O)c3ccccc23)c1 [Example 37] : 126 % activity

----------
Below, each of the compounds is paired with its reported Sirt6 Activity (% activity, 10 μM) value.
target: Sirt6 (Homo sapiens, UniProt Q8N6T7); construct: purchased CycLex CY-1156V2; test: Measurement of Sirt6 Activity (CycLex Sirt6 Deacetylase Fluorometric Assay Kit); type: biochemical; conditions: compound at 10 μM; fluorescence relative to the group without compound treatment (positive control group)
Report the figure in % activity without appending any unit label.

# smilesStructure, measuredTarget, resultUnit, quantitativeResult
rows = [
    ("NS(=O)(=O)c1cccc(-c2nn(C3CCCCC3)c(=O)c3ccccc23)c1", "Sirt6 (Homo sapiens, UniProt Q8N6T7)", "% activity", 162.3),
    ("CN(c1cccc(-c2nn(-c3ccc(F)cc3)c(=O)c3ccccc23)c1)S(=O)(=O)C1CC1", "Sirt6 (Homo sapiens, UniProt Q8N6T7)", "% activity", 128),
    ("N#Cc1cccc(-c2nn(-c3ccc(F)cc3)c(=O)c3ccccc23)c1", "Sirt6 (Homo sapiens, UniProt Q8N6T7)", "% activity", 120.16),
    ("Nc1cccc(-c2nn(-c3ccc(F)cc3F)c(=O)c3ccccc23)c1", "Sirt6 (Homo sapiens, UniProt Q8N6T7)", "% activity", 147),
]

# Sirt6 Activity (% activity, 10 μM) of "N/C(=N/O)c1cccc(-c2nn(-c3ccc(F)cc3)c(=O)c3ccccc23)c1" = 102.08

Consider "O=c1c2ccccc2c(-c2cccc(/C=[N+](\[O-])Cc3ccccc3)c2)nn1-c1ccccc1" . Its measured Sirt6 Activity (% activity, 10 μM) is 113
